Assay: in vitro
Conditions: human, hela cells, % viability
reported property: viability at 28.5 h, 10 µM (%)
Give just the number in %; leave the unit off.

Output measured viability at 28.5 h, 10 µM for this item: O=c1[nH]ccn2nc(-c3ccc4c(c3)OCO4)cc12
87.7

Name the recorded viability at 28.5 h, 10 µM of the item O=c1n(-c2cccc(C(F)(F)F)c2)ccn1S(=O)(=O)c1ccc(Cl)c(Cl)c1 in your answer.
96.7

Complete the entry with viability at 28.5 h, 10 µM for CC1CCC/C(=N\NC(=O)C2C3CCCCC32)C1 (stereo not drawn)
116

Please supply the value of reported viability at 28.5 h, 10 µM for the item O=C(CSc1ccc(Cl)cc1)NCCCN1CCOCC1
99.6

Tell me measured viability at 28.5 h, 10 µM for CN(C)C(=O)c1ccc(-c2cnc(N)c(-c3ccc(O)cc3)n2)cc1 please.
91.7

Specify measured viability at 28.5 h, 10 µM for Cc1cc(C(C)(C)C)ccc1OCCNCCN [CBK265097G] .
91.3

Give the value of viability at 28.5 h, 10 µM reported for the following: O=C(O)C1CCN(c2ncnc3sc4c(c23)CCC4)CC1
98.9

Give me measured viability at 28.5 h, 10 µM, please, for this molecule: CC(Nc1cc(N2CCN(S(=O)(=O)N(C)C)CC2)ccc1[N+](=O)[O-])C12CC3CC(CC(C3)C1)C2 (stereo not drawn)
115

Give recorded viability at 28.5 h, 10 µM. CCN(CC)C(=O)c1ccsc1NS(=O)(=O)c1cc(Br)ccc1OC
103

###

Assay: in vitro
Settings: human, hela cells, % viability
So I've got a bunch of compounds here, and I need their viability at 28.5 h, 10 µM values.
Your answer is read as %, so omit the unit and give the number.

Kindly indicate its recorded viability at 28.5 h, 10 µM. Item: CN(Cc1c(F)cccc1Cl)C(=O)CSc1nc(CC(=O)O)cs1
95.3

Identify measured viability at 28.5 h, 10 µM corresponding to Cc1ccc(C(=O)N2CCn3c2nc2ccccc23)cc1
108

Complete the entry with viability at 28.5 h, 10 µM for Cc1cc(OC(C)C(=O)Nn2cnnc2)ccc1Cl (stereo not drawn)
98.1

# return recorded viability at 28.5 h, 10 µM for input COc1ccc(C)cc1S(=O)(=O)n1cc2c3c(cccc31)CN(C(=O)CN(C)C)C2 [CBK155549T]
93.3

Quick one: give measured viability at 28.5 h, 10 µM for Cc1nc(CN2C(=O)CC3(C2=O)C(=O)N(CCCCOc2ccccc2)c2ccccc23)cs1 (stereo not drawn)
102

Please report viability at 28.5 h, 10 µM for the following compound: CSCCCNC(=O)N(CCC#N)C1CCCCC1
104

Give a short answer stating reported viability at 28.5 h, 10 µM for C(=C\CSc1nc2ccccc2[nH]1)/CSc1nc2ccccc2[nH]1 .
107

Note down viability at 28.5 h, 10 µM recorded for CCOc1ccc(N(Cc2ccc(C(=O)O)cc2)S(C)(=O)=O)cc1
104

Specify viability at 28.5 h, 10 µM for CCCn1c(C)c(C)n2c3c(=O)n(CCC(=O)OC)c(=O)n(C)c3nc12 and stop.
98.4

###

Test: in vitro
Design: Viability of infected HeLa host cells, resazurin conversion, bulk resorufin fluorescence relative to DMSO
Settings: human, hela cells; bulk resorufin, mean of 2
Answer each item with its documented viability at 28.5 h, 1 µM.
// note: answer is a bare numeric in %

Please look at this compound and report its viability at 28.5 h, 1 µM: O=c1c2cnc3ccnn3c2ccn1C1CCCC1
103

For the compound COc1ccc(C(C)C)cc1-c1cn2ccnc2c(N2CCN(c3ccncc3)CC2)n1 , report viability at 28.5 h, 1 µM.
102

Assign viability at 28.5 h, 1 µM to the following record: CCOc1ccsc1C(=O)NC1Cc2ccccc2C1
104

# return recorded viability at 28.5 h, 1 µM for input CC(=O)Nc1ccc(S(=O)(=O)Nc2ccc(C(=O)Nc3ccc(F)cc3)cc2)cc1
93.4

Report viability at 28.5 h, 1 µM, nothing else, for this compound: CCC(Sc1nnc2c(n1)[nH]c1ccccc12)C(=O)N1c2ccccc2Sc2ccccc21 (stereo not drawn)
94.1

Annotate the compound CC(Nc1cccc2ccccc12)C(=O)N/N=C/c1ccc(O)cc1O (stereo not drawn) with its measured viability at 28.5 h, 1 µM.
89.9

Given the compound Cc1cc2nc(-c3ccccn3)[nH]c2cc1C , write its reported viability at 28.5 h, 1 µM.
94.7

Item CC(=O)N1CCc2sccc2C1c1ccccc1NCc1ccoc1 (stereo not drawn) : provide viability at 28.5 h, 1 µM
85

Identify measured viability at 28.5 h, 1 µM corresponding to COc1ccc(OC)c(Nc2nc(NCC3CCCO3)c3ccccc3n2)c1 (stereo not drawn) [CBK268403C]
97.5

Values from paper PMC12040169
